Listed below: Ki values for each entry.
target_or_system: human recombinant ER (ERα) (Homo sapiens, UniProt P03372)
Sequence (P03372 1-595): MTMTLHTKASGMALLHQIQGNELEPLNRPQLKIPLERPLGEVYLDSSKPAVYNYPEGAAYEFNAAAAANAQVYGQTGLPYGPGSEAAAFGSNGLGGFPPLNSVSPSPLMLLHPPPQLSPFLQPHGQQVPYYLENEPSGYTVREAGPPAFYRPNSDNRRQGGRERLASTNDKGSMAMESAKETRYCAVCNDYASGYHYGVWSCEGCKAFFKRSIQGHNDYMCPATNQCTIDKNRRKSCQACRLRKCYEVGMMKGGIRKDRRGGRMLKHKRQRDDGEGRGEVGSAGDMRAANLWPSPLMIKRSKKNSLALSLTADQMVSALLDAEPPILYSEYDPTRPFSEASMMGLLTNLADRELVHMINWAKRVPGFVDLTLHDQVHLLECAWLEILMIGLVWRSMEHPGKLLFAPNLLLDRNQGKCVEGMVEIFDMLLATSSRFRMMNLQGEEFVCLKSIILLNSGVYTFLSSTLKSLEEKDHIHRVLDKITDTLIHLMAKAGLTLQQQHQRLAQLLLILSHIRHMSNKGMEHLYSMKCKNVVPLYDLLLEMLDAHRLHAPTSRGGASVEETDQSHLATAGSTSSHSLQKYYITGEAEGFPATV
assay_details: competitive radiometric binding assay with tritiated estradiol
measurement_context: human recombinant ER; read-out: Ki, calculated equilibrium concentration of competing ligand that binds half of the ER binding sites
// note: answer is a bare numeric in nM

C[C@]12CCC3c4ccc(O)cc4CCC3C1CC[C@@]2(O)C#Cc1cc(CN(CC(=O)O)CC(=O)O)nc(CN(CC(=O)O)CC(=O)O)c1 (some centres unmarked) [Compound 6] | 400

With those in mind, consider the next compound.
Look up and report measured Ki for this entry: CC/C(=C(\c1ccc(C#Cc2cc(CN(CC(=O)O)CC(=O)O)nc(CN(CC(=O)O)CC(=O)O)c2)cc1)c1ccc(OCCN(C)C)cc1)c1ccccc1 [Compound 16] 480

---

assay_details: in vivo MRI monitoring of distribution and binding in mice with orthotopic MCF7 breast tumor
Parameters: species or system CD1-NU immunodeficient female mice
measurement_context: female, CD1-NU, mouse, tumor (orthotopic MCF7 breast tumor), intravenous; 24 hours after bolus 0.024 mmol/kg, calculated from relaxation rates; read-out: apparent concentration in the tumor
metric_name: concentration at 24 h
Please don't drop the unit; write it after the number.

Look up and report measured concentration at 24 h for this entry: CC12CCC3c4ccc(O)cc4CCC3C1CCC2(O)C#Cc1cc(CN(CC(=O)O)CC(=O)O)nc(CN(CC(=O)O)CC(=O)O)c1 (stereo not shown) 2500 nM
